# Tested on: RAW264.7
# Procedure Summary: Antiinflammatory activity against mouse RAW264.7 cells assessed as LPS-induced nitrate production at 100 uM treated 30 mins before LPS challenge measured after 24 hrs by Griess reagent method relative to control
Recorded level, % of control at 100 µM split into classes class 1: < 40%; class 2: ≥ 40% and < 50%; class 3: ≥ 50%

1) O=C(OCCBr)C1(c2ccc(-c3ccc(Cl)c(Cl)c3)c(F)c2)CC1: class 1
2) O=C(OCCO[N+](=O)[O-])C1(c2ccc(-c3ccc(C(F)(F)F)cc3)c(F)c2)CC1: class 2

Which level, % of control at 100 µM band matches "O=C(O)C1(c2ccc(-c3ccccc3)c(F)c2)CC1" ?
class 3

Given CC(C(=O)O)c1ccc(-c2ccccc2)c(F)c1 (stereo unspecified) , name the class its level, % of control at 100 µM places it in.
class 3

GET /class?item= "O=C(OCCBr)C1(c2ccc(-c3ccc(C(F)(F)F)cc3)c(F)c2)CC1"
class 1

Kindly identify the class of "O=C(OCCBr)C1(c2ccc(-c3ccccc3)c(F)c2)CC1" .
class 1

Each compound maps to one class by level, % of control at 100 µM. Which class for "O=C(OCCO[N+](=O)[O-])C1(c2ccc(-c3ccccc3)c(F)c2)CC1" ?
class 2

Category of "O=C(O)C1(c2ccc(-c3ccc(C(F)(F)F)cc3)c(F)c2)CC1" , please.
class 3

---

# Procedure Summary: Ratio of drug level in brain to plasma in C57BL/6 mouse at 10 mg/kg, ip after 120 mins
# Type: ADME, organism-based
# Set-up: dose 10 mg/kg, route intraperitoneal
# Condition Summary: read-out: BPR
Measured Attribute: Kp at 2 h
Simply state the number, no unit and no words.

Field Kp at 2 h (entry CC(C(=O)NCCCCO[N+](=O)[O-])c1ccc(-c2ccccc2)c(F)c1 (stereo unspecified) ) reads 13

---

# Tested on: N2a (Mus musculus)
# Procedure Summary: Cytotoxicity against mouse N2a/APPsw cells assessed as cell viability at 1 uM after 24 hrs by MTT assay relative to control
Recorded viability at 24 h, 1 µM for the following molecules
Write the answer as a number in %, unit excluded.

1) O=C(O)C1(c2ccc(-c3ccc(C(F)(F)F)cc3)c(F)c2)CC1: 97.2
2) CC(F)(C(=O)O)c1ccc(-c2ccccc2)c(F)c1 (stereo unspecified): 101
3) NC(=O)C(F)c1ccc(-c2ccc(F)cc2)c(F)c1 (stereo unspecified): 69.1

Please fill in: viability at 24 h, 1 µM reported for "O=C(O)C1(c2ccc(-c3ccccc3)c(F)c2)CC1" = 103

Note to self: viability at 24 h, 1 µM recorded for NC(=O)C(F)c1ccc(-c2ccccc2)c(F)c1 (stereo unspecified) was 103

The molecule listed as "N#CC(F)(F)c1ccc(-c2ccc(F)cc2)c(F)c1" has a reported viability at 24 h, 1 µM of 98.2

---

# System: N2a
# Procedure Summary: Antiamyloidogenic activity in mouse N2A cells transfected with human APP Swedish mutant assessed as amyloid beta (1 to 42) level at 1 uM after 24 hrs by ELISA relative to control
Recorded level, % of control at 1 µM, one value per entry.
Provide the reading as a plain figure in %.

Below, each entry is followed by its recorded level, % of control at 1 µM result.
1) NC(=O)C(F)(F)c1ccc(-c2ccc(F)cc2)c(F)c1: 109
2) O=C(O)C(O)c1ccc(-c2ccc(F)cc2)c(F)c1 (configuration not stated): 106
3) CC1=C(CC(=O)O)c2cc(F)ccc2/C1=C\c1ccc([S+](C)[O-])cc1 (configuration not stated): 100
4) O=C(O)CC1=C/C(=C/c2ccc(SC(F)(F)F)cc2)c2ccc(F)cc21: 99.4
5) COc1ccc2c(c1)c(CC(=O)O)c(C)n2C(=O)c1ccc(Cl)cc1: 108
6) C[S+]([O-])c1ccc(/C=C2/C=C(CC(=O)O)c3cc(F)ccc32)cc1 (configuration not stated): 95

Shifting focus to the molecule that follows.
So, "CSc1ccc(/C=C2/C=C(CC(=O)NCc3ccccc3)c3cc(F)ccc32)cc1" ? Its level, % of control at 1 µM was 94.5

---

# viability at 24 h, 10 µM per record follows
# Procedure Summary: Cytotoxicity against mouse RAW264.7 cells assessed as cell viability at 10 uM after 24 hrs by MTT assay relative to control
# Assay type: cell-based
# Condition Summary: read-out: Activity
Please reply with the bare figure in % and do not write the unit itself.

Use the examples below as a reference point.
1. NC(=O)C(F)(F)c1ccc(-c2ccccc2)c(F)c1: 100
2. CCNC(=O)CC1=C/C(=C/c2ccc(SC)cc2)c2ccc(F)cc21: 104
3. CC1=C(CC(=O)O)c2cc(F)ccc2/C1=C\c1ccc([S+](C)[O-])cc1 (stereo not given): 104

Please find the next compound below.
viability at 24 h, 10 µM reading for "CSc1ccc(/C=C2/C=C(CC(=O)NCc3ccccc3)c3cc(F)ccc32)cc1" : 100

---

# Procedure Summary: Ratio of drug level in brain to plasma in C57BL/6 mouse at 10 mg/kg, ip after 30 mins
# Format: ADME, organism-based
# Set-up: dose 10 mg/kg, route intraperitoneal
# Condition Summary: read-out: BPR
Measured Attribute: Kp at 0.5 h

Kp at 0.5 h reading for CC(C(=O)NCCCCO[N+](=O)[O-])c1ccc(-c2ccccc2)c(F)c1 (stereo unspecified) : 37

---

# Procedure Summary: Cytotoxicity against mouse RAW264.7 cells assessed as cell viability at 10 uM after 24 hrs by MTT assay relative to control
# Assay type: cell-based
# Condition Summary: read-out: Activity
Listed next: entries and their corresponding viability at 24 h, 10 µM.
Numeric only. Scale: %

1) CCC(C#N)(CC)c1ccc(-c2cccc3ccccc23)c(F)c1: 107
2) O=C(O)CC1=C/C(=C/c2ccc(SC(F)(F)F)cc2)c2ccc(F)cc21: 104
3) COc1ccc2c(c1)c(CNCCO)c(C)n2C(=O)c1ccc(Cl)cc1: 100
4) O=C(O)CC1=C/C(=C/c2ccc(C(F)(F)F)cc2)c2ccc(F)cc21: 100

# compound "COc1ccc2c(c1)c(CC(=O)O)cn2C(=O)c1ccc(Cl)cc1" ; its viability at 24 h, 10 µM = 97.9

The reported value for O=C(O)C(O)c1ccc(-c2ccccc2)c(F)c1 (stereo not drawn) in terms of viability at 24 h, 10 µM is 89.1

Record C[S+]([O-])c1ccc(/C=C2/C=C(CC(=O)O)c3cc(F)ccc32)cc1 (stereo not drawn) , field viability at 24 h, 10 µM: 104

Value of measured viability at 24 h, 10 µM for the entry "CSc1ccc(/C=C2/C=C(CC(=O)O)c3cc(F)ccc32)cc1" : 100

Sample CC(F)(C(=O)O)c1ccc(-c2ccccc2)c(F)c1 (stereo not drawn) ; viability at 24 h, 10 µM observed: 99.7

The compound listed as "O=C(O)C1(c2ccc(-c3ccc(F)cc3)c(F)c2)CC1" has a reported viability at 24 h, 10 µM of 102

---

The following compounds are listed with their measured viability at 24 h, 100 µM values.
# Procedure Summary: Cytotoxicity against mouse RAW264.7 cells assessed as cell viability at 100 uM after 24 hrs by MTT assay relative to control
# Format: cell-based
# Condition Summary: read-out: Activity
The response must be a number in % with no trailing unit.

Example compounds with recorded viability at 24 h, 100 µM:
1. CC(C(=O)O)c1ccc(-c2ccccc2)c(F)c1 (configuration not stated) [FLURBIPROFEN]: 10.9
2. CC(C(=O)OCCCCO[N+](=O)[O-])c1ccc(-c2ccccc2)c(F)c1 (configuration not stated): 108
3. O=C(O)C1(c2ccc(-c3ccc(Cl)c(Cl)c3)c(F)c2)CC1: 19.1
4. O=C(OCCBr)C1(c2ccc(-c3ccc(C(F)(F)F)cc3)c(F)c2)CC1: 113
5. O=C(OCCBr)C1(c2ccc(-c3ccccc3)c(F)c2)CC1: 109

Per the records, this compound ( "O=C(O)C1(c2ccc(-c3ccccc3)c(F)c2)CC1" ) has viability at 24 h, 100 µM equal to 101

# viability at 24 h, 100 µM of "O=C(OCCBr)C1(c2ccc(-c3ccc(Cl)c(Cl)c3)c(F)c2)CC1" = 114

viability at 24 h, 100 µM for "O=C(OCCO[N+](=O)[O-])C1(c2ccc(-c3ccccc3)c(F)c2)CC1" is 113

// viability at 24 h, 100 µM value for "O=C(OCCO[N+](=O)[O-])C1(c2ccc(-c3ccc(C(F)(F)F)cc3)c(F)c2)CC1" : 128

The recorded viability at 24 h, 100 µM for entry COc1ccc2c(c1)c(CC(=O)O)c(C)n2C(=O)c1ccc(Cl)cc1 [INDOMETHACIN] equals 92

So for "O=C(O)C1(c2ccc(-c3ccc(C(F)(F)F)cc3)c(F)c2)CC1" , the logged viability at 24 h, 100 µM turned out to be 102

For this compound ( "O=C(OCCO[N+](=O)[O-])C1(c2ccc(-c3ccc(Cl)c(Cl)c3)c(F)c2)CC1" ), measured viability at 24 h, 100 µM is 135
